Tested on: BABS
experimental.details: Radioimmunoassay, inhibition of 125I-digoxin binding to BABS by cardiac glycosides
Set-up: species or system murine
test.context: normalizing glycoside digoxigenin
endpoint.name: normalized concentration of inhibitor giving 50% inhibition of 125I-digoxin binding

compound	subject.of.test	reported.measurement
C[C@@H]1O[C@@H](O[C@H]2C[C@@H](O)[C@]3(CO)[C@H]4[C@H](O)C[C@]5(C)[C@@H](C6=CC(=O)OC6)CC[C@]5(O)[C@@H]4CC[C@]3(O)C2)[C@H](O)[C@H](O)[C@H]1O [Ouabain, ouabain]	BABS	21

---

System: biosynthetic protein (FB-sFv 26-10)
experimental.details: Inhibition of 125I-dig-lysine binding by unlabelled cardiac glycosides
Parameters: species or system murine
test.context: unlabelled glycoside; compared with parent 26-10 Fab
Text: Properties of the binding site were probed by a modification of an assay developed by Mudgett-Hunter et al. (J. Immunol. (1982) 129:1165-1172; Molec. Immunol. (1985) 22:477-488), so that it could be run on microtiter plates as a solid phase sandwich assay. Binding data were collected using goat anti-murine Fab antisera (gAmFab) as the primary antibody that initially coats the wells of the plate. […]

compound	inhibition of binding of 125I-dig-lysine
C[C@H]1O[C@@H](O[C@H]2[C@@H](O)C[C@H](O[C@H]3[C@@H](O)C[C@H](O[C@H]4CC[C@@]5(C)[C@H](CC[C@@H]6[C@@H]5CC[C@]5(C)[C@@H](C7=CC(=O)OC7)[C@@H](O)C[C@]65O)C4)O[C@@H]3C)O[C@@H]2C)C[C@H](O)[C@@H]1O [Gitoxin, gitoxin]	can be inhibited
C[C@]12CC[C@H](O)C[C@H]1CC[C@@H]1[C@@H]2C[C@@H](O)[C@]2(C)[C@@H](C3=CC(=O)OC3)CC[C@]12O [Digoxigenin, digoxigenin]	can be inhibited
C[C@H]1O[C@@H](O[C@H]2[C@@H](O)C[C@H](O[C@H]3[C@@H](O)C[C@H](O[C@H]4CC[C@@]5(C)[C@H](CC[C@@H]6[C@@H]5CC[C@]5(C)[C@@H](C7=CC(=O)OC7)CC[C@]65O)C4)O[C@@H]3C)O[C@@H]2C)C[C@H](O)[C@@H]1O [Digitoxin, digitoxin]	can be inhibited

---

Examples of molecules with documented normalized concentration of inhibitor giving 50% inhibition of 125I-digoxin binding follow.
System: 26-10 Fab
Type: binding, murine
test.context: normalizing glycoside digoxigenin
endpoint.name: normalized concentration of inhibitor giving 50% inhibition of 125I-digoxin binding

molecule	subject.of.test	reported.measurement
C[C@@H]1O[C@@H](O[C@H]2C[C@@H](O)[C@]3(CO)[C@H]4[C@H](O)C[C@]5(C)[C@@H](C6=CC(=O)OC6)CC[C@]5(O)[C@@H]4CC[C@]3(O)C2)[C@H](O)[C@H](O)[C@H]1O	26-10 Fab	13
CC(=O)OC1CCC2(C=O)C3CCC4(C)C(C5=CC(=O)OC5)CCC4(O)C3CCC2(O)C1 (stereo not drawn)	26-10 Fab	1.1
C[C@]12CC[C@H](O)C[C@H]1CC[C@@H]1[C@@H]2CC[C@]2(C)[C@@H](C3=CC(=O)OC3)CC[C@]12O	26-10 Fab	0.9

---

System: BABS
experimental.details: Radioimmunoassay, inhibition of 125I-digoxin binding to BABS by cardiac glycosides
Set-up: species or system murine
test.context: normalizing glycoside digoxigenin
Procedure: After the plates were washed and blocked with 1% horse serum in PBSA, solutions ([…]) containing 26-10 Fab or the BABS in either PBSA or 0.01 M sodium acetate at pH 5.5 were added to the wells and incubated 2-3 hrs at room temperature.
Measured normalized concentration of inhibitor giving 50% inhibition of 125I-digoxin binding accompanies every entry in the list below.
endpoint.name: normalized concentration of inhibitor giving 50% inhibition of 125I-digoxin binding

compound	reported.measurement
C[C@]12CC[C@H](O)C[C@H]1CC[C@@H]1[C@@H]2CC[C@]2(C)[C@@H](C3=CC(=O)OC3)CC[C@]12O	0.4
C[C@]12CC[C@H](O)C[C@H]1CC[C@@H]1[C@@H]2C[C@@H](O)[C@]2(C)[C@@H](C3=CC(=O)OC3)CC[C@]12O	1.0
C[C@H]1O[C@@H](O[C@H]2[C@@H](O)C[C@H](O[C@H]3[C@@H](O)C[C@H](O[C@H]4CC[C@@]5(C)[C@H](CC[C@@H]6[C@@H]5CC[C@]5(C)[C@@H](C7=CC(=O)OC7)CC[C@]65O)C4)O[C@@H]3C)O[C@@H]2C)C[C@H](O)[C@@H]1O	0.3
C[C@H]1O[C@@H](O[C@H]2[C@@H](O)C[C@H](O[C@H]3[C@@H](O)C[C@H](O[C@H]4CC[C@@]5(C)[C@H](CC[C@@H]6[C@@H]5C[C@@H](O)[C@]5(C)[C@@H](C7=CC(=O)OC7)CC[C@]65O)C4)O[C@@H]3C)O[C@@H]2C)C[C@H](O)[C@@H]1O	0.1
C[C@H]1O[C@@H](O[C@H]2[C@@H](O)C[C@H](O[C@H]3[C@@H](O)C[C@H](O[C@H]4CC[C@@]5(C)[C@H](CC[C@@H]6[C@@H]5CC[C@]5(C)[C@@H](C7=CC(=O)OC7)[C@@H](O)C[C@]65O)C4)O[C@@H]3C)O[C@@H]2C)C[C@H](O)[C@@H]1O	8.5
CC(=O)OC1CCC2(C=O)C3CCC4(C)C(C5=CC(=O)OC5)CCC4(O)C3CCC2(O)C1 (stereo not drawn)	0.8
